System: NCI-H1651
assay_name: relative viability (nuclei count vs DMSO), 5 days (fraction); higher = more cells survive
assay_conditions: first compound 0.253 µM
Measured relative viability, listed per entry.
experimental_readout: relative viability

C=C1C(=O)O[C@@H](CCCCCCCC)[C@@H]1C(=O)O [C-75] + CC1(C)CCC(c2ccc(Cl)cc2)=C(CN2CCN(c3ccc(C(=O)NS(=O)(=O)c4ccc(N[C@H](CCN5CCOCC5)CSc5ccccc5)c(S(=O)(=O)C(F)(F)F)c4)cc3)CC2)C1 [Navitoclax] (partner 0.5 µM); 1.11
C=C1C(=O)O[C@@H](CCCCCCCC)[C@@H]1C(=O)O [C-75] + CS(=O)(=O)CCNCc1ccc(-c2ccc3ncnc(Nc4ccc(OCc5cccc(F)c5)c(Cl)c4)c3c2)o1 [Lapatinib] (partner 2 µM); 0.853
C=C1C(=O)O[C@@H](CCCCCCCC)[C@@H]1C(=O)O [C-75] + O=C(CCCCCCC(=O)Nc1ccccc1)NO [Vorinostat] (partner 1 µM); 0.58
